# measured_on: human GABABR1aR2a (Homo sapiens, UniProt O75899+Q9UBS5)
# Construct: expressed in transfected cells
# Sequence (Q9UBS5 15-961 limits assumed): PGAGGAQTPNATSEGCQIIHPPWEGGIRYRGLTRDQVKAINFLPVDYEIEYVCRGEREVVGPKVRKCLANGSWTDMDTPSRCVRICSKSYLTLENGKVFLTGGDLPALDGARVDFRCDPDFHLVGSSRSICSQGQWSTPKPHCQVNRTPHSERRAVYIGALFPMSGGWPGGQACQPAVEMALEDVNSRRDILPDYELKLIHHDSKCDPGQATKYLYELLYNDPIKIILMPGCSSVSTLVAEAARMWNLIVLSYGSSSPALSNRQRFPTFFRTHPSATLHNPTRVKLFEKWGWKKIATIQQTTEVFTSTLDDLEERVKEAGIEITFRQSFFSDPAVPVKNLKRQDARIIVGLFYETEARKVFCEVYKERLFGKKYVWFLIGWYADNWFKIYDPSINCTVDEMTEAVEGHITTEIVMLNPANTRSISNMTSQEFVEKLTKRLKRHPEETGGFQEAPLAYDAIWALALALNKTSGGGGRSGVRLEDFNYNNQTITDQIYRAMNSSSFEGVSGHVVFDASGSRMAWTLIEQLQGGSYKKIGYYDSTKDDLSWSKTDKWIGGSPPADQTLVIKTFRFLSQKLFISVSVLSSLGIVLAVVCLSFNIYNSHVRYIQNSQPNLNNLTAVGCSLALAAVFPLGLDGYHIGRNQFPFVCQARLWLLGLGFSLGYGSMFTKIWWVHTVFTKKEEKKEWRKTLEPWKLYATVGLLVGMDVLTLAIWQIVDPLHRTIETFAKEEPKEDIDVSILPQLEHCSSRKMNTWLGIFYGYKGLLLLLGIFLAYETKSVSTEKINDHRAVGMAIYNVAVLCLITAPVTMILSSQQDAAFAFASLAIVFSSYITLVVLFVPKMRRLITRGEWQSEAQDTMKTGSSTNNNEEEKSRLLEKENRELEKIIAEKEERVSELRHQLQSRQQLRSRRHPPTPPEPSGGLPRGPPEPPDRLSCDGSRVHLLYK
# Sequence (O75899 42-941): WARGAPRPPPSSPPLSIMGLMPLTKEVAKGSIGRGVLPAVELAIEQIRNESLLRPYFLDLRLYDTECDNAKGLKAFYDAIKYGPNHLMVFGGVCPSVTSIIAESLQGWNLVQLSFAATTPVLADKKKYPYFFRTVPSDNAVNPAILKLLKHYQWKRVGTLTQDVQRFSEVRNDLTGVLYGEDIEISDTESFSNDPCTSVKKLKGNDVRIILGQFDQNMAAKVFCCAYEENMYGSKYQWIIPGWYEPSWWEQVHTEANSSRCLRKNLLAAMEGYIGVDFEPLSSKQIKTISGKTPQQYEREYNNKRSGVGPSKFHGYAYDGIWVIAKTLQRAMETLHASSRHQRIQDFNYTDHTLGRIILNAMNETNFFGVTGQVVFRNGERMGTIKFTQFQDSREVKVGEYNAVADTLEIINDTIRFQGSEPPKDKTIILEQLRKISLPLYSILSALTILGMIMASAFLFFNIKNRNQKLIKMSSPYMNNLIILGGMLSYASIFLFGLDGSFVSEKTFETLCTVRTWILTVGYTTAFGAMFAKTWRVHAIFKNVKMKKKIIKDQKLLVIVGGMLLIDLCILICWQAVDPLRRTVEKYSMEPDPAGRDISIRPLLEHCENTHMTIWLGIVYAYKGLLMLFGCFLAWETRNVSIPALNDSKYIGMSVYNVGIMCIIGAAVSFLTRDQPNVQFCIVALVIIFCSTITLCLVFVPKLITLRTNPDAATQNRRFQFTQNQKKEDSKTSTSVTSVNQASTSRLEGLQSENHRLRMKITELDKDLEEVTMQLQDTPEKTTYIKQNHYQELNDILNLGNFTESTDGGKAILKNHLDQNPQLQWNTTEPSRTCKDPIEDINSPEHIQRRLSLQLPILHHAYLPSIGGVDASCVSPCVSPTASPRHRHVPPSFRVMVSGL
# assay_overview: Intracellular Ca2+ mobilization assay (FLIPR) in CHO-GABABR1aR2a-Gα16 cell
# Type: cell-based
# condition_description: enhancer 0.001-30 μM in presence of 10 nM GABA (EC10); normalized to 10 μM GABA = 100%, 10 nM GABA = 0%; read-out: Emax (%) at 10 nM GABA alone = 0% 10 μM GABA alone = 100%
Please respond with reported Emax for every item in the list.
Express it in %; write the number only.

Record CCCCCCSc1nc(C)cc(CN2[C@H](C)CCC[C@@H]2C)n1 [Example 38] , field Emax: 61

Record CCCCCCSc1nc(C)cc(CN2CCCCC2C)n1 (centres unmarked) [Example 31] , field Emax: 60

Record CCCCCCSc1nc(CC)cc(CN2CCOCC2)n1 [Example 41] , field Emax: 60

Record Cc1cc(CN2CCOCC2)nc(SCc2ccc(C(C)(C)C)cc2)n1 [Example 11] , field Emax: 41

Record CCCCCCSc1nc(C)cc(CN2CCOCC2)n1 [Example 1] , field Emax: 46

Record CCCCCSc1nc(C)cc(CN2CCOCC2)n1 [Example 2] , field Emax: 52

Record CCCCCCSc1nc(CN2CCOCC2)cc(C(F)(F)F)n1 [Example 39] , field Emax: 62

Record CCCCCCSc1nc(C)cc(CN2C[C@@H]3C[C@@H](C2)c2cccc(=O)n2C3)n1 [Example 35] , field Emax: 62

Record CCCCCCSc1nc(C)cc(CN2C(C)CCCC2C)n1 (centres unmarked) [Example 37] , field Emax: 74.2

Record CCCCCCSc1nc(C)cc(CN2CCCC2)n1 [Example 16] , field Emax: 48

Record CCCCCCSc1nc(C)cc(C(C)N2CCOCC2)n1 (centres unmarked) [Example 43] , field Emax: 49
